targetUnderTest: DNA polymerase beta (Homo sapiens)
testSummary: qHTS Assay for Inhibitors of DNA Polymerase Beta
particulars: Pol beta primer extension/strand displacement, fluorescence kinetic; series mostly up to 114 µM
Screen size: about 340,000 compounds; about 4,500 (1.3%) were called active. Not shown: some 5% with an inconclusive outcome. The call rests on the fitted dose curve; in most records, active means well fitted inhibition curve with a large enough effect; inconclusive means small, poorly fitted or top-dose-only effect, or another doubt; inactive means no such curve, though single readings can be large or run the other way. What follows is part of a selection rich in actives, with near analogues and random picks from the rest.
Tick one outcome: active, inactive

compound=O=C(NCc1ccco1)c1nc2ncccn2n1 classification=inactive

Query string: Field: outcome | Entry: CC(/C=N/NC(=O)c1cc(-c2ccc3ccccc3c2)n[nH]1)=C\c1ccco1
Result string: active

Query string: Try this compound too: Cc1cccc(C(C)C)c1NC(=O)C(NS(=O)(=O)c1cccc2nsnc12)c1ccccc1 (stereo unspecified)
Result string: inactive

Query string: Try this compound too: O=C(OCc1cc(=O)n2nc(C3CC3)sc2n1)c1ccccc1Cl
Result string: inactive

Query string: Try this compound too: Cc1ccc2onc(CC(=O)N3CCN(c4ccc(Cl)cc4)CC3)c2c1
Result string: inactive

Query string: Try this compound too: O=c1oc(-c2ccco2)nc2sc3c(c12)CCCCC3
Result string: inactive
